- system-name: T1, recombinant human WISP1/His (human, UniProt O95388 23-367)
- T1 construct: also called hWISP1; recombinant human WISP1 protein; not shown: His tag
- T1 sequence (looked up): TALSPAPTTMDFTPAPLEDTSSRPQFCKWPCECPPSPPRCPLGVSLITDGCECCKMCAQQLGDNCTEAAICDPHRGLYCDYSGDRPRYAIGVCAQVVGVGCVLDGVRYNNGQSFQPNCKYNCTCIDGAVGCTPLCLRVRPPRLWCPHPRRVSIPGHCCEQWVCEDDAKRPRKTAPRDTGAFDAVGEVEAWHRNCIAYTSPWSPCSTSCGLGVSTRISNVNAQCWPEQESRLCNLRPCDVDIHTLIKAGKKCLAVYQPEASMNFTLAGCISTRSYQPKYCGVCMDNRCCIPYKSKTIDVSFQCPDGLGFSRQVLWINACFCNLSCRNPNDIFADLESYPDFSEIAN
- procedure-text: ELISA screening

binder	binding result
WIr1B11 (antibody, V domains shown, Fully human IgG; also called Wlr1B11) VH: EVQLVQSGAEVKKPGASVKVSCKASGYTFTSYDINWVRQATGQGPEWLGWLNPGSGKTGNAQNFQGRVFMTWDTSKDTAYMEMSSLRSDDTAVYYCARNLDYWGQGTLVTVSS VL: DIVMTQTPSSLSASVGDRVTITCRASQSISSYLNWYQQKPGKAPKLLIYAASSLQSGVPSRFSGSRSGTDFTLTITNVQPEDFATYYCLQAYDFPITFGQGTKVEIK	binds
WIr2B9 (antibody, V domains shown, Fully human IgG; also called Wlr2B9) VH: QVQLVQSGAEVKKPGSSVKVSCKASGGTFNNYNINWVRQAPGQGFEWMGRIVPMLGVPKYAQKFQGRVTISADMSTSTAYMELRSLRSDDTAMYYCARGEDLDPWGQGTLVTVS VL: SYELMQPASVSGSPGQSITISCTGTSSDVGGYNYVSWYQQHPGKAPKLMIYDVSKRPSGVSNRFSGSKSGNTASLTISGLQAEDEADYYCSSYTSSSPYVFGTGTKVTVL	binds
WI2D9 (antibody, V domains shown, Fully human IgG; also called Wl2D9) VH: EVQLVQSGAEVKRSGASVKVSCKLSGDTLTDLSIHWVRQAPGKGLEWMGGFDFEDGEIVYGDKFKGRVTVTEDPSTDTAYMDLKRLTFEDTAIYYCATIKDIPGRYYFDFWGQGTLVTVSS VL: QSVVTQPPSVSGAPGQRVTISCTGSSSNIGAGYDVHWYQQLPGTAPKLLIYGNSNRPSGVPDRFSGSKSGTSASLAITGLQAEDEADYYCQSYDSSLSGSNWVFGGGTKLTVL	binds
WIr2D9 (antibody, V domains shown, Fully human IgG; also called Wlr2D9) VH: QVQLVQSGAEVKKPGASVKVSCKVSGYTLTELSMHWVRQAPGKGLEWMGGFDPEDGETIYAQKFQGRVTMTEDTSTDTAYMELSSLRSEDTAVYYCATEGWFGELSPVYWGQGTLVTVSS VL: AIQLTQSPSSLSASVGDRVTITCRASQDIRNDLGWYQQKPGRAPQRLIYTTSTLQSGVPSRFSGSGSGTEFTLTISSLQPEDFATYYCLQHNTYPWTFGQGTRLEIK	binds
WIr2B11 (antibody, V domains shown, Fully human IgG; also called Wlr2B11) VH: EVQLVQSGAEVKKPGASVKVSCKASGYTFTSYDINWVRQATGQGPEWLGWLNPGSGKTGNAQNFQGRVFMTWDTSKDTAYMEMSSLRSDDTAVYYCARNLDYWGQGTLVTVSS VL: AIQLTQSPSTLSASVGDRVTITCRASQSISSWLAWYQQKPGKAPKLLIYATSRLQSGVPSRFSGSGSGTDFTLTINSLQPEDFATYYCQQYKSYPVTFGPGTKVDIK	binds
WIr2D5 (antibody, V domains shown, Fully human IgG; also called Wlr2D5) VH: EVQLVESGAEVKKPGASVKVSCKASGYTFTSYGISWVRQAPGQGLEWMGWISAYNGNTNYAQKLQGRVTMTTDTSTSTAYMELRSLRSDDTAVYYCARVRVFEYSSLMDVWGQGTTVTVSS VL: AIQMTQSPSSLSASVGDRVTITCQASQDISNYLNWYQQKPGKAPKLLIYDASNLETGVPSRFSGSGSGTDFTFTISSLQPEDIATYYCQQHDNLPITFGQGTRLEIK	binds
WIrF8 (antibody, V domains shown, Fully human IgG; also called WlrF8) VH: EVQLLESGAEVKKPGASVKVSCRVPGYSLSELSMHWVRQAPGKGLEWMGGFDPEDGETIYAQKFQGRVTMTEDTSTDTAYMELSSLRSEDTAVYYCAASGGWEVHDAFDTWGQGTMVTVSS VL: DIVMTQSPSSLSASVGDRVTITCRASQDISYYLAWYQQKPGKAPELLIYAGSSLQSGVPSRFSGSESGTDFTLTISSLQPEDVASYYCQQYKTAPYTFGQGTKLEIK	binds
WIr2A7 (antibody, V domains shown, Fully human IgG; also called Wlr2A7) VH: QVQLVQSGAEVKKPGASVKVSCKVSGYTLTELSIYWVRQAPGKGLEWVGGFDPEDGETVYAQNFQGRVTMTEDTSTDTAYMELSSLRSEDTAVYYCATHTSYDKVWGRYRPSLAFDIWGQGTMVTVSS VL: DIVMTQTPSSLSASVGDRVTITCQASQDISKYLNWYQQKPGKAPNLLIYDASNLETGVPSRFSGSGSGTDFTLTISSLQPEDIGTYYCQQDDNLPLTFGGGTKVEIK	binds
WIr2H2 (antibody, V domains shown, Fully human IgG; also called Wlr2H2) VH: EVQLVQSGADVKKPGASVKVSCQASGYTLTSYDIHWMRQAPGQGLEWMGWINPNSGNTGYAEKFQGRVAMTSHTSTSTVYMELSRLTSEDTAVYYCARGAMGGFDPWGQGTLVTVSS VL: DIQMTQSPSSVSASVGDRVTITCRASQDISRWLAWYQQKPGKAPKLLIYAASTLQSGVPSRFSGSGSGTDFTLTISSLQPEDFATYYCQQANTFPITFGQGTRLEIK	binds
WI1A5 (antibody, V domains shown, Fully human IgG; also called Wl1A5) VH: QVQLVQSGREMKKPGASMKVSCKASGYTFTKYGISWVRQAPGQGLEWMGWISADNGKTHYAQKLQGRVTMTTDTSTSTAYLELRRLRSDDTAVYFCANDGGYWGQGTLVTVSS VL: QSVLTQPPSVSGAPGQRVTISCTGTSSNLGAGFPVYWYQQLPGKPPKVLIDGNNDRPSGVPDRVSGSKSDTSASLAITGLQAEDEADYYCLSYDSGLDGWVFGGGTKLTVL	binds

The reported measurements were obtained from patent US20170304442A1.
